Ref: ChEMBL document CHEMBL4513216

# run-description: Toxicity liver stage against HepG2, at 10uM
# Assay type: cell-based
# Set-up: test concentration 10 uM, cell line HepG2-A16-CD81EGFP
# condition: human, HepG2-A16-CD81EGFP cells; read-out: INHIBITION
assay-readout: cytotoxicity at 10 µM (%)
The response must be a number in % with no trailing unit.

Some solved cases for reference:
compound | cytotoxicity at 10 µM, %
COC(=O)CCCn1ccnc1-c1ccc(OC)c(F)c1F | -2.8
O=C(c1ccsc1)N1CCc2c(CNc3nccs3)n[nH]c2C1 | 10.9

[Q] # input compound: CC(C)C(=O)NC1COC2(CCN(C(=O)c3ccc[nH]3)CC2)C1 (stereo unspecified) ; wanted: its cytotoxicity at 10 µM
[A] 6.15

[Q] # input compound: COc1ccc(CN(C)C(=O)c2nnc(CN(C)C)o2)cc1 ; wanted: its cytotoxicity at 10 µM
[A] -3.42

[Q] # input compound: O=C(Nc1ccc(N2CCCCC2)nc1)N1CCc2sccc2C1 ; wanted: its cytotoxicity at 10 µM
[A] -7.98

[Q] # input compound: CCOc1cc(F)ccc1NC1CCN(CC(F)(F)F)C1=O (stereo unspecified) ; wanted: its cytotoxicity at 10 µM
[A] -0.302
